# Tested on: DMS 273 small cell lung
# assay-name: NCI tumour cell line growth inhibition, 48 h
This section presents compounds with their documented TGI values.
outcome-measure: TGI

>>> meas_value("Cc1ccc(S(=O)(=O)SCc2ccccc2)cc1")
"> 69.5 µM"
>>> meas_value("COC1=CC(=O)NCCN1")
"> 100 µM"
>>> meas_value("CCCCc1c2c(nc3c1CC/C(=C\\c1ccc([N+](=O)[O-])cc1)C3=O)CCCC2")
"3.78 µM"
>>> meas_value("CC1=C/C(=C2/N=C(N(C)C)SS2)C(C)=N1")
"> 100 µM"
>>> meas_value("CC(C)[C@](O)(C(=O)OCC1=CCN2CC[C@@H](O)[C@@H]12)[C@H](C)O")
"> 375 µM"
>>> meas_value("Cc1cc2c(C(C)C)c(O)c(O)c(C=Nc3ccccc3)c2c(O)c1-c1c(C)cc2c(C(C)C)c(O)c(O)c(C=Nc3ccccc3)c2c1O")
"> 100 µM"
>>> meas_value("O=C(CC1C(=O)Nc2ccccc2S1(=O)=O)Nc1cccc(Cl)c1 (stereo unspecified)")
"29.4 µM"
>>> meas_value("Cc1cc(NS(=O)(=O)c2ccc(NC(=O)COC(=O)c3cccc4c(=O)c5ccccc5[nH]c34)cc2)no1")
"> 100 µM"
>>> meas_value("CC12CC(Sc3ccccc3N1)c1ccccc1O2 (stereo unspecified)")
"30.2 µM"
>>> meas_value("CC(C)(C)N=CN(C=C(c1ccccc1)c1ccccc1)C1CCCCC1")
"> 100 µM"
>>> meas_value("O=[N+]([O-])c1ccc(COc2cccc3cccnc23)cc1")
"20.8 µM"
